tested on: β-galactosidase in CMV-LacZ C2C12 myotubes; experiment: CMV-LacZ secondary screen in C2C12 myotubes (β-Gal stabilizing assay); format: cell-based, mouse; details: 20 uM; CMV-LacZ C2C12 myotubes; 96-well format
Readout Label: CMV-LACZ in Myotubes (β-galactosidase activity relative to DMSO)
One number for each entry.

// worked examples, CMV-LACZ in Myotubes (β-galactosidase activity relative to DMSO) included
| Compound | Quantitative Result |
| --- | --- |
| COc1ccc(C(=O)N/C(=C/c2cccnc2)C(=O)N2CCN(C)CC2)cc1OC [MLS001140657-01] | 1.05 |
| COc1ccccc1OCC(=O)Nc1cc2c(cc1C(=O)O)OCCCO2 [MLS001177045-01] | 1.058 |
| O=C(Nc1ccc(S(=O)(=O)Nc2nccs2)cc1)c1ccccc1OC(F)F [MLS002164687-01] | 0.968 |
| Cc1ccc(C2Nc3cccc4cccc(c34)N2)s1 [MLS000591198-01] | 0.8338 |
| O=C(/C(=C(/[O-])c1ccccc1)[n+]1ccccc1)c1ccc([N+](=O)[O-])cc1 [MLS000705922-01] | 0.9302 |
| COc1ccc(-c2csc3ncnc(N4CCN(c5ccccc5[N+](=O)[O-])CC4)c23)cc1 [MLS001149811-01] | 1.122 |

Pending compound:
Q. Which CMV-LACZ in Myotubes (β-galactosidase activity relative to DMSO) value belongs to CNc1nnc(SCC(=O)c2cc(C)n(C3CC3)c2C)s1 [MLS002156485-01] ?
A. 1.115
